Let's look at some binders and their measured kon.
# target-or-system: T1, human tissue factor (human TF, Lake Pharma) (human, UniProt P13726 33-251, limits assumed)
# T1 construct: bought recombinant antigen; also called CD142
# T1 sequence (P13726 33-251 limits assumed): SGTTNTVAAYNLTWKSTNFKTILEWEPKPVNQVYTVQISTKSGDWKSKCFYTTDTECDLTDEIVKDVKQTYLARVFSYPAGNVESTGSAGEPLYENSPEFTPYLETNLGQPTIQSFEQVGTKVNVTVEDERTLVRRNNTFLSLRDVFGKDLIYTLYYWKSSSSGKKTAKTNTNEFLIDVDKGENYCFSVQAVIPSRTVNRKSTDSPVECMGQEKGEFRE
# protocol-summary: Biacore SPR kinetics, antibody captured on anti-Fc, 1:1 Langmuir fit
measurement-kind: kon (M⁻¹ s⁻¹)

>>> numeric_result("mAb 49: aTF_2842-G04_HC2_Y180/F404TAG; aTF_2842-G04_LC2 (antibody, IgG1, V domains shown, non-natural amino acid (pAMF) at TAG sites Y180 and F404 (EU), * in the sequence, unconjugated full-length IgG1/kappa; also called 2842-G04 HC2/LC2) VH: QVQVQESGPGLVKPPGTLSLTCAVSGFSLSYYGVSWVRQPPGKGLEWIGTIDSSGRTYYNPSLKSRVTISNDNAPNTVSLKLSSVTAADTAVYYCARDFYGWNSGALDIWGQGTLVTVSS VL: DLQLTQSPSTLSASVGDRVTITCRASQSVYSNKYLSWYQQKPGKAPKLLIYKASTLASGVPSRFSGSGSGTEFTLTISSLQPDDFATYYCAAAYSDDSDTAFGQGTKVEIKR")
62500
>>> numeric_result("mAb 37: aTF_2842-B01_Hc3_Y180/F404TAG pAzMeF; aTF_2842-B01_Lc2 (antibody, IgG1, V domains shown, pAzMeF at Y180 and F404 (EU), * in the sequence, unconjugated full-length IgG1/kappa, cell-free expressed; also called 2842-B01 HC3/LC2; 2842-B01-HC3/LC2 Y180/F404) VH: EVQLVESGGGLVQPGGSLRLSCAASGFSISSYDMSWVRQAPGKGLEWIGIIGSNGRTYYPDSVKGRFTISRDNSKNTVTLQMNSLRAEDTAVYYCARGLYDGTGNIWGQGTLVTVSS VL: ELVMTQSPPTLSLSPGERVTLSCRASQSVYGNNWLSWYQQKPGQAPRLLIYGASKLATSIPARFSGSGSGTQFTLTISSLQPEDFAVYYCQGTYYSGDWYFAFGQGTKVEIKR")
57200
>>> numeric_result("mAb 48: aTF_2842-B01_HC1_Y180/F404TAG; aTF_2842-B01_LC3 (antibody, IgG1, V domains shown, non-natural amino acid (pAMF) at TAG sites Y180 and F404 (EU), * in the sequence, unconjugated full-length IgG1/kappa; also called 2842-B01 HC1/LC3) VH: QVQVVESGGGLVKPGGSLRLSCAASGFSISSYDMSWIRQAPGKGLEWIGIIGSNGRTYYADSVKGRFTISRNTNENTVYLQMNSLRAEDTAVYYCARGLYDGTGNIWGQGTLVTVSS VL: DIQMTQSPSSLSASVGDRVTITCQASQSVYGNNWLSWYQQKPGKAPKLLIYGASKLASGVPSRFSGSGSGTDFTLTISSLQPEDFATYYCQGTYYSGDWYFAFGGGTKVEIKR")
71200
>>> numeric_result("mAb 47: aTF_2842-B01_HC3_Y180/F404TAG; aTF_2842-B01_LC1 (antibody, IgG1, V domains shown, non-natural amino acid (pAMF) at TAG sites Y180 and F404 (EU), * in the sequence, unconjugated full-length IgG1/kappa; also called 2842-B01 HC3/LC1) VH: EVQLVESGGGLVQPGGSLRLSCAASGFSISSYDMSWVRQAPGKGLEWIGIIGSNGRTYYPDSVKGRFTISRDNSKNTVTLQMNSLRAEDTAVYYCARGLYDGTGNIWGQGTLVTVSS VL: DLQMTQSPSSLSASVGDRVTITCRASQSVYGNNWLSWYQQKPGKAPKLLIYGASKLASGVPSRFSGSGSGTQFTLTISSLQPEDFATYYCQGTYYSGDWYFAFGQGTKVEIKR")
54000
